Experiment: Half life in Sprague-Dawley rat at 1 mg/kg, iv or 2 mg/kg, po administered via gavage by LC-MS/MS analysis
Assay type: ADME, organism-based
Conditions: in vivo
measured-quantity: half-life (h)
Number in h, nothing else.

The molecule listed as `CC(C)(O)c1cncc(-n2ncc3c(C(F)(F)F)cccc32)c1` has a reported half-life of 7.6

---

Target: Cytochrome P450 11B2, mitochondrial (Homo sapiens, UniProt P19099)
Sequence (P19099 whole entry): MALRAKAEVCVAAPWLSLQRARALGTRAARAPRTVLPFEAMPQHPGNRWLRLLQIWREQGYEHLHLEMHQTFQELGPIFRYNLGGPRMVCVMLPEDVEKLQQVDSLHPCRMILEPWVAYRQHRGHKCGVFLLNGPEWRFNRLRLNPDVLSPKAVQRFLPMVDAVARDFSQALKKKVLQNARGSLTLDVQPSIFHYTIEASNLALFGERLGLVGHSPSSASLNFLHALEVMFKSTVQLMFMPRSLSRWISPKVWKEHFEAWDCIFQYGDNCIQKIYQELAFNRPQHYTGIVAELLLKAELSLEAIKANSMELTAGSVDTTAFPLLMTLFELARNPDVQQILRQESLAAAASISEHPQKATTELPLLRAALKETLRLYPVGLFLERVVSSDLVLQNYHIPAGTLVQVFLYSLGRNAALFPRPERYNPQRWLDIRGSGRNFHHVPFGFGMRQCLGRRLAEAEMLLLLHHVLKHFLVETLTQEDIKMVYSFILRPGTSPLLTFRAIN
Assay: Inhibition of human CYP11B2-CLE9 expressed in Chinese hamster V79 cells using 11-deoxycorticosterone as substrate preincubated for 1 hr followed by substrate addition measured for 3 hrs by HTRF assay
measured-quantity: pIC50
Keep in mind that pIC50 stands for -log10 of concentration in molar terms.

Fc1cncc(-n2ncc3cc(F)ccc32)c1 :: 6.34
COc1cncc(-n2ncc3cc(F)ccc32)c1 :: 7.36
Cc1ccc2c(cnn2-c2cncc(C(C)(C)O)c2)c1 :: 7.01
CC(C)(O)c1cncc(-n2ncc3ccc(C(F)(F)F)cc32)c1 :: 5.64
Fc1ccc2c(cnn2-c2cccnc2)c1 :: 6.66

Continue with the next compound.
The compound listed as `COc1nn(-c2cncc(C(C)(C)O)c2)c2ccccc12` has a reported pIC50 of 7.60
